Kindly state Inhibition of binding (%) for each of the entries shown.
# SYSTEM: hCMV gH + gL + UL128 + UL130 + UL131A (co-expressed in HEK293T cells) (human cytomegalovirus), P12824
# ASSAY_NOTES: competitor: 5A2-biotin; cell staining
# CONDITION_LABEL: remark: other sources report otherwise
Express the result in % but write the number alone.

What value of measured Inhibition of binding (%) is listed for 10F7 (antibody, V domains shown) VH: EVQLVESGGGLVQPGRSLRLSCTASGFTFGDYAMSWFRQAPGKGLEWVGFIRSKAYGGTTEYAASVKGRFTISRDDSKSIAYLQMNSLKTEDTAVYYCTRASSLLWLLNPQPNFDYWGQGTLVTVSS VL: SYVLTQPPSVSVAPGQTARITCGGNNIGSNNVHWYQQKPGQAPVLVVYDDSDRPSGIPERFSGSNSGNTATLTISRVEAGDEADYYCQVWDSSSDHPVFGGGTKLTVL ? 0

Follow-up entry: 2C12 (antibody, V domains shown) VH: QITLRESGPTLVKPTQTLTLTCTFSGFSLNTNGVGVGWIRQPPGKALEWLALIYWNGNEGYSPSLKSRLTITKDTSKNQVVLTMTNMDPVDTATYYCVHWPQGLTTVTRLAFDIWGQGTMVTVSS VL: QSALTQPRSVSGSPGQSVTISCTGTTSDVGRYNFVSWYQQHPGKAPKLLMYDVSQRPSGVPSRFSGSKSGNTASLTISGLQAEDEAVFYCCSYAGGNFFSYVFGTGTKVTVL 0

Follow-up entry: 4I22 (antibody, V domains shown) VH: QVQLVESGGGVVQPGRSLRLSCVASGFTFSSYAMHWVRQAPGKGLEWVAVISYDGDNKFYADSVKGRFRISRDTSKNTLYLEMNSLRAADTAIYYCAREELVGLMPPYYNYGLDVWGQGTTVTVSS VL: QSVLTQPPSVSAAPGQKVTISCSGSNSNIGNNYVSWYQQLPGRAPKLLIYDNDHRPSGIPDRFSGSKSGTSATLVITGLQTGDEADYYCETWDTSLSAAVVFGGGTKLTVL 0

Follow-up entry: 4N10 (antibody, V domains shown) VH: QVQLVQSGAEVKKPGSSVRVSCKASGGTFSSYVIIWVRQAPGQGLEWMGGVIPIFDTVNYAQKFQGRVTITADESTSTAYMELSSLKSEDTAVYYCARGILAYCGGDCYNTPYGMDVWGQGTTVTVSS VL: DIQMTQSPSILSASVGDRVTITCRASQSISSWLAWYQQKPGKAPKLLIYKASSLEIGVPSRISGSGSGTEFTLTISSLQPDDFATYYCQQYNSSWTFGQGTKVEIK 100

Follow-up entry: 15D8 (antibody, V domains shown) VH: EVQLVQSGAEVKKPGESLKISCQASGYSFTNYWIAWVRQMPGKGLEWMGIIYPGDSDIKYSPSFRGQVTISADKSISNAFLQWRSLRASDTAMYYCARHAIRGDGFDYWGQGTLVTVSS VL: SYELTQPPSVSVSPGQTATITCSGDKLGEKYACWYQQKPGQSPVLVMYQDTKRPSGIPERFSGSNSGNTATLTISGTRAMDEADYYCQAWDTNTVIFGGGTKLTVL 0
